target: M. tuberculosis riboflavin synthase (recombinant) (Mycobacterium tuberculosis, UniProt P9WK35)
Sequence (P9WK35 whole entry): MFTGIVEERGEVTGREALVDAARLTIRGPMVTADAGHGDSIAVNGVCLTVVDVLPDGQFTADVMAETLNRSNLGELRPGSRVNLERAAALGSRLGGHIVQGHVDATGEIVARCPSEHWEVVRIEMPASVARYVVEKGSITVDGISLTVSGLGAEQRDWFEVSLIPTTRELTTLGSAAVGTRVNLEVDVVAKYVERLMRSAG
run.description: Kinetic assay of riboflavin synthase inhibitors, M. tuberculosis enzyme
Assay type: biochemical

compound: C=C(C)C(=O)Nc1c(NC[C@H](O)[C@H](O)[C@H](O)CO)[nH]c(=O)[nH]c1=O [Compound 56]
Mechanism of inhibition: Partial
--
compound: COC(=O)C(=O)Nc1c(OC[C@H](O)[C@H](O)[C@H](O)CO)[nH]c(=O)[nH]c1=O [Compound 37]
Mechanism of inhibition: Uncompetitive
--
compound: CCC(=O)Nc1c(SC[C@H](O)[C@H](O)[C@H](O)CO)[nH]c(=O)[nH]c1=O [Compound 49]
Mechanism of inhibition: Uncompetitive
--
compound: CCOC(=O)C(=O)Nc1c(OC[C@H](O)[C@H](O)[C@H](O)CO)[nH]c(=O)[nH]c1=O [Compound 36]
Mechanism of inhibition: Uncompetitive
--
compound: CC(C)C(=O)Nc1c(OC[C@H](O)[C@H](O)[C@H](O)CO)[nH]c(=O)[nH]c1=O [Compound 40]
Mechanism of inhibition: Uncompetitive
--
compound: O=C(CC(F)(F)F)Nc1c(NC[C@H](O)[C@H](O)[C@H](O)CO)[nH]c(=O)[nH]c1=O [Compound 66]
Mechanism of inhibition: Uncompetitive
--
compound: O=c1[nH]c(OC[C@H](O)[C@H](O)[C@H](O)CO)c([N+](=O)[O-])c(=O)[nH]1 [Compound 22]
Mechanism of inhibition: Partial
